Entry source: ChEMBL document CHEMBL1149580

Reported Papp values for a set of compounds
assay.info: Apparent permeability across human Caco-2 cells
Format: ADME, cell-based
Non-standard residues stand in square brackets, D forms with d. Residues, ends and D or L forms follow the SMILES beside them. ξ: configuration not given here. *: point of attachment. X1 = NC(=O)[C@H]1OC(N*)[C@H](O)[C@@H](O)[C@@H]1O; ξAoc(2) = CCCCCCC(N)C(=O)O
property: Papp (×10⁻⁶ cm/s)

compound	result
NC(=O)[C@@H]1CCCN1C(=O)[C@H](Cc1cnc[nH]1)NC(=O)[C@@H]1CCC(=O)N1	0.147
OC[C@@H](O)[C@@H](O)[C@H](O)[C@H](O)CO	0.0825
NC(=O)[C@H]1OC(NC(=O)[C@@H]2CCCN2C(=O)[C@H](Cc2cnc[nH]2)NC(=O)[C@@H]2CCC(=O)N2)[C@H](O)[C@@H](O)[C@@H]1O (some centres undefined)	5.1
CCCCCCC(N)C(=O)N[C@@H](CCC(N)=O)C(=O)N[C@@H](Cc1cnc[nH]1)C(=O)N1CCC[C@H]1C(=O)NC1O[C@H](C(N)=O)[C@@H](O)[C@H](O)[C@H]1O (some centres undefined) (H-[ξAoc(2)]QHP-X1)	16.3

---

assay.info: Stability in Caco-2 cells after 20 mins
Type: ADME, cell-based
measurement.setup: human, read-out: Stability
property: remaining at 20 min

> print(dat)
                                   molecule  result
1  NC(=O)[C@@H]1CCCN1C(=O)[C@H](Cc1cnc[nH]1)NC(=O)[C@@H]1CCC(=O)N1 [PROTIRELIN]    < 5%

---

assay.info: Stability in Caco-2 cells assessed as half life
Format: ADME, cell-based, Colon
measurement.setup: human
Non-standard residues stand in square brackets, D forms with d. Residues, ends and D or L forms follow the SMILES beside them. ξ: configuration not given here. *: point of attachment. X1 = NC(=O)[C@H]1OC(N*)[C@H](O)[C@@H](O)[C@@H]1O; ξAoc(2) = CCCCCCC(N)C(=O)O
Recorded half-life by entry

compound	half-life / min
NC(=O)[C@@H]1CCCN1C(=O)[C@H](Cc1cnc[nH]1)NC(=O)[C@@H]1CCC(=O)N1	3
NC(=O)[C@H]1OC(NC(=O)[C@@H]2CCCN2C(=O)[C@H](Cc2cnc[nH]2)NC(=O)[C@@H]2CCC(=O)N2)[C@H](O)[C@@H](O)[C@@H]1O (stereo partly drawn)	20
CCCCCCC(N)C(=O)N[C@@H](CCC(N)=O)C(=O)N[C@@H](Cc1cnc[nH]1)C(=O)N1CCC[C@H]1C(=O)NC1O[C@H](C(N)=O)[C@@H](O)[C@H](O)[C@H]1O (stereo partly drawn) (H-[ξAoc(2)]QHP-X1)	20
